Recorded values, source patent US10059694B2.

# Test system: human non-small cell lung cancer NCI-H1975 cell line
# experimental.details: SRB proliferation assay, NCI-H1975 cells
# Type: cell-based
# settings: NCI-H1975, 72 h, read-out: IC50 NCI-H1975
readout.kind: IC50 (nM)
Give a bare numeral; the unit nM is implied.

[in] Assign IC50 to the following record: COc1ccc(NC(=O)/C=C/CN(C)C)cc1Nc1ncc(Cl)c(Nc2ccc3ccccc3c2)n1
[out] 306

###

# target.desc: EGFR^T790M/L858R (Homo sapiens, UniProt P00533, L858R/T790M)
# Sequence (P00533 25-1210 T790M/L858R): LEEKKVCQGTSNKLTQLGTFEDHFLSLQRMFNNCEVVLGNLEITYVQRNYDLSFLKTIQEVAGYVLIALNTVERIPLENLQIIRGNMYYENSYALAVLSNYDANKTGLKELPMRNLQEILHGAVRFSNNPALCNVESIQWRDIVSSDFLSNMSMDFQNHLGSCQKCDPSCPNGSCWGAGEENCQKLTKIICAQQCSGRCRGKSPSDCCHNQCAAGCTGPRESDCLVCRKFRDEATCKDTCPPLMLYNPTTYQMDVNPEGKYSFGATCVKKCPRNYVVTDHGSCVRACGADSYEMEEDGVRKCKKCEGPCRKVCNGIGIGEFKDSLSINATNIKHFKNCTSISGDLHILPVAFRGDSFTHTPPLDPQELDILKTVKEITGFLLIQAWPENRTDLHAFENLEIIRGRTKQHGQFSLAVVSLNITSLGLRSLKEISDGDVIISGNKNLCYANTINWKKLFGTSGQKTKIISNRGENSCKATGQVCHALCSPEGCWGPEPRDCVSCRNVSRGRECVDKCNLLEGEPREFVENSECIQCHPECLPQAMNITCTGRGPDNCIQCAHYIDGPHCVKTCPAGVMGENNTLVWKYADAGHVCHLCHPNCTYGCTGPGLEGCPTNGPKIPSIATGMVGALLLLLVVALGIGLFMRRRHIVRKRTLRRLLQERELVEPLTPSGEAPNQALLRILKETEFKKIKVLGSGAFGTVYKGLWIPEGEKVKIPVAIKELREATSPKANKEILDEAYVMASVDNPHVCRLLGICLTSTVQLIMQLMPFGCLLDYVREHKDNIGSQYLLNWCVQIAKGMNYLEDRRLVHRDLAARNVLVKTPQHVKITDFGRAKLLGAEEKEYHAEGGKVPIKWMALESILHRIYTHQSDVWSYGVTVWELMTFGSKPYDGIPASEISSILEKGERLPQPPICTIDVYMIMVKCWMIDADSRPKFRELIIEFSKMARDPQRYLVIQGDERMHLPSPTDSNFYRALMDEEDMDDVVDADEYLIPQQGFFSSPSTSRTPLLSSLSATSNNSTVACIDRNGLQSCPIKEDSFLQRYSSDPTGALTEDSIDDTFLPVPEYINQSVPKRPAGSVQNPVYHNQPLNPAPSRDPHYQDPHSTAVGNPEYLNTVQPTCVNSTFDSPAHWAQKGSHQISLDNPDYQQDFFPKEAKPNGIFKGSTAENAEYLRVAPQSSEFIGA
# experimental.details: kinase inhibitory activity test (ELISA), EGFR^T790M/L858R
# settings: ELISA, ATP 5 μM, 1 hour at 37° C.
readout.kind: IC50 (nM)
Give the number; nM is assumed, so skip it.

INSERT INTO measurements (chemical_smiles, target_desc, reported_measurement) VALUES
  ('COc1ccc(NC(=O)/C=C/CN(C)C)cc1Nc1ncc(Cl)c(Nc2cnc3ccccc3c2)n1', 'EGFR^T790M/L858R (Homo sapiens, UniProt P00533, L858R/T790M)', 37.6),
  ('COc1ccc(NC(=O)/C=C/CN(C)C)cc1Nc1ncc(Cl)c(Nc2ccc3ncccc3c2)n1', 'EGFR^T790M/L858R (Homo sapiens, UniProt P00533, L858R/T790M)', 43.5),
  ('COc1ccc(NC(=O)/C=C/CN(C)C)cc1Nc1ncc(C)c(Nc2ccc3ccccc3c2)n1', 'EGFR^T790M/L858R (Homo sapiens, UniProt P00533, L858R/T790M)', 72.9),
  ('CCOc1ccc(NC(=O)/C=C/CN(C)C)cc1Nc1ncc(Cl)c(Nc2ccc3ccccc3c2)n1', 'EGFR^T790M/L858R (Homo sapiens, UniProt P00533, L858R/T790M)', 25.6),
  ('CC(C)Oc1ccc(NC(=O)/C=C/CN(C)C)cc1Nc1ncc(Br)c(Nc2ccc3ccccc3c2)n1', 'EGFR^T790M/L858R (Homo sapiens, UniProt P00533, L858R/T790M)', 177);

[in] Name the recorded IC50 of the compound listed here: Cc1cc(NC(=O)/C=C/CN(C)C)cc(Nc2ncc(Cl)c(Nc3ccc4ccccc4c3)n2)c1
[out] 46.3

[in] Please give measured IC50 of the following entry: C=CC(=O)Nc1ccc(OC)c(Nc2ncc(Cl)c(Nc3ccc4ccccc4c3)n2)c1
[out] 2.2

[in] Supply measured IC50 of COc1ccc(NC(=O)/C=C/CN(C)C)cc1Nc1ncc(F)c(Nc2ccc3ccccc3c2)n1 in your reply.
[out] 32
